assay: Inhibition of 6-His tagged-G4SG4 fused ZIKV NS2B (49 to 95 residues) R95A mutant-NS3 (1 to 170 residue) R29G mutant expressed in Escherichia coli BL21 (DE3) using Bz-Nle-K-RR-AMC substrate preincubated for 10 mins followed by substrate addition and measured after 30 mins by fluorescence assay; design: species or system Zika virus
Residues, ends and D or L forms follow the SMILES beside them. *: point of attachment. PhAc = O=C(Cc1ccccc1)*; NHBn = c1ccc(CN*)cc1
value.type: IC50 (µM)
Quick reminder: number only, in µM, skip the unit.

Known IC50 results, listed for orientation:
{"compound": "CN1CCC(CNC(=O)[C@H](CCCNC(=N)N)NC(=O)[C@H](CCCCN)NC(=O)[C@H](CCCCN)NC(=O)Cc2ccccc2)CC1", "unit.abbreviation": "µM", "IC50": 7.8}
{"compound": "N=C(N)NCCC[C@H](NC(=O)c1cccs1)C(=O)N[C@@H](CCCCN)C(=O)NCc1ccc(OCc2ccc(C(F)(F)F)cc2)cc1", "unit.abbreviation": "µM", "IC50": 8.2}

Now for another entry.
Need IC50, item N=C(N)NCCC[C@H](NC(=O)[C@H](CCCCN)NC(=O)[C@H](CCCCN)NC(=O)Cc1ccccc1)C(=O)NCc1ccccc1 (PhAc-Lys-Lys-Arg-NHBn)
7.9
